- Test system: N. fowleri trophozoites
- assay_name: Anti-amoebic viability assay (CellTiter-Blue) with microscopic observation
- Format: cell-based, Naegleria fowleri
- settings: Naegleria fowleri; N. fowleri trophozoites, 48 h, viability; mean ± SD
measured_endpoint: IC90 (µM)
Provide the reading as a plain figure in µM.

Answered cases to consult:
Looking up CCCCCCCCCCCCCCCCCCCCCCOC[C@@H]1CCC[C@H]1OP(=O)([O-])OCC[N+](C)(C)C , I found its IC90 recorded as 187

IC90 reported for this compound CCCCCCCCCCCCCO[C@@H]1CCC[C@H]1COP(=O)([O-])OCC[N+](C)(C)C : 109

Query compound follows.
// IC90 lookup, compound = CCCCCCCCCCCCCOC[C@@H]1CCC[C@H]1OP(=O)([O-])OCC[N+](C)(C)C , result: 104

* * *

- Tested on: N. fowleri trophozoites
- assay_name: Anti-amoebic viability assay (CellTiter-Blue) with microscopic observation
- Assay type: cell-based, Naegleria fowleri
- settings: CC50 of C6 glial cell divided by IC50 of inhibition of N. fowleri
Selectivity Index for assorted compounds

Below are worked cases with known answers.
Measured Selectivity Index (N. fowleri trophozoites), entry CCCCCCCCCCCCCCCCCCO[C@@H]1CCC[C@H]1COP(=O)([O-])OCC[N+](C)(C)C : 2.94

Entry CCCCCCCCCCCCO[C@H]1CCC[C@H]1COP(=O)([O-])OCC[N+](C)(C)C , N. fowleri trophozoites data, Selectivity Index value: >2.47

Reading of Selectivity Index for CCCCCCCCCCCCOC[C@@H]1CCC[C@H]1OP(=O)([O-])OCC[N+](C)(C)C with N. fowleri trophozoites: >1.43

Now take the following compound into account.
Simply: CCCCCCCCCCCCCCCCOP(=O)([O-])OCC[N+](C)(C)C , N. fowleri trophozoites, Selectivity Index = ~1.08
